Listed here are binders together with their documented kon.
- subject.of.test: T1, monkey Fc-PD-1 protein (monkey, UniProt Q15116 25-170 (human entry))
- T1 construct: not shown: Fc part not described
- T1 chain: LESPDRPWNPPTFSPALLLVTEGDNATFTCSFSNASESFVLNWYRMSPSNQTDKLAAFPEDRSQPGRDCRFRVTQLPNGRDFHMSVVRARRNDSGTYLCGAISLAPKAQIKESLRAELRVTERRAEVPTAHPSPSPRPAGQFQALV
- experiment: Biacore, Fab, monkey Fc-PD-1

>  <binder>
A35797 (Fab, V domains shown, humanized Fab clone of 137F2; also called humanized antibody A35797) VH: EVQLVQSGAEVKKHGESLKISCKGSGYSFTNYWIGWVRQATGQGLEWMGDIYPGGGYTNYNEKFKGRVTITADKSTSTAYMELSSLRSEDTAVYYCARGYDFVLDRWGQGTTVTVSS VL: DIQMTQSPSSLSASVGDRVTITCKSSQSLFNSETQKNYLAWYQQKPGQPPKLLIYWASTRESGVPSRFSGSGSGTDFTLTISSLQPEDFATYYCKQSYTLRTFGGGTKLEIK

>  <kon>
93700 M⁻¹ s⁻¹

$$$$
>  <binder>
A35799 (Fab, V domains shown, humanized Fab clone of 137F2; also called humanized antibody A35799) VH: QMQLVQSGAEVKKTGSSVKVSCKASGYTFTNYWIGWVRQMPGKGLEWMGDIYPGGGYTNYNEKFKGRVTITADKSTSTAYMELSSLRSEDTAVYYCARGYDFVLDRWGQGTTVTVSS VL: DVVMTQSPAFLSVTPGEKVTITCKSSQSLFNSETQKNYLAWYQQKPGQPPKLLIYWASTRESGVPSRFSGSGSGTDFTLTISSLQPEDFATYYCKQSYTLRTFGGGTKLEIK

>  <kon>
89700 M⁻¹ s⁻¹

$$$$
>  <binder>
A35805 (Fab, V domains shown, humanized Fab clone of 137F2; also called humanized antibody A35805) VH: QVQLVQSGSELKKPGASVKVSCKASGYTFTNYWIGWVRQAPGKGLEWMGDIYPGGGYTNYNEKFKGRVTITADKSTSTAYMELSSLRSEDTAVYYCARGYDFVLDRWGQGTTVTVSS VL: DVVMTQSPAFLSVTPGEKVTITCKSSQSLFNSETQKNYLAWYQQKPGQPPKLLIYWASTRESGVPSRFSGSGSGTDFTFTISSLEAEDAATYYCKQSYTLRTFGGGTKLEIK

>  <kon>
88200 M⁻¹ s⁻¹

$$$$

We next turn to a different binder, shown below.
Q: Supply reported kon belonging to this binder: A35796 (Fab, V domains shown, humanized Fab clone of 137F2; also called humanized antibody A35796) VH: QMQLVQSGPEVKKPGTSVKVSCKASGFTFTNYWIGWVRQAPGQALEWMGDIYPGGGYTNYNEKFKGRVTITADKSTSTAYMELSSLRSEDTAVYYCARGYDFVLDRWGQGTTVTVSS VL: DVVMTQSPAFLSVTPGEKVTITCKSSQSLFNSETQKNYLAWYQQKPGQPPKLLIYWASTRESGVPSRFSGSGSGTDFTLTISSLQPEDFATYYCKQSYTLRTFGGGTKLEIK
A: 95300 M⁻¹ s⁻¹
